The origin of these recorded values is patent US20100292231A1.

Quick reference for EC50 among some compounds
Target: MAPK11 (p38 beta) (Homo sapiens, UniProt Q15759)
Sequence (Q15759 whole entry): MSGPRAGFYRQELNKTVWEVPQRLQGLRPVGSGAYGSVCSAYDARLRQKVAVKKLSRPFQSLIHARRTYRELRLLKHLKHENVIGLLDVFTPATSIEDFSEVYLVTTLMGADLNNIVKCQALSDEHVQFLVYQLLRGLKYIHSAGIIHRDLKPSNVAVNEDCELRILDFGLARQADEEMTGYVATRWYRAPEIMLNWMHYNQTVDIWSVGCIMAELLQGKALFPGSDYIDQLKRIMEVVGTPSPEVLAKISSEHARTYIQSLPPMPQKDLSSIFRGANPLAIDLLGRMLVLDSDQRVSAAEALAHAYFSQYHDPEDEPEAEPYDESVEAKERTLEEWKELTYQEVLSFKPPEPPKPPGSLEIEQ
Experiment: SelectScreen kinase specificity survey
Settings: estimated, abridged dose response curve, read-out: Kinase inhibitory activity EC50

CN(C)CCCNc1ccc2ncn3c4ccc5[nH]ncc5c4c(=O)c1c23
> 5 µM

Turning now to a further record.
The compound CCN(CC)CCNc1ccc2ncn3c4ccc(O)cc4c(=O)c1c23 [Symadex, reference compound] showed EC50 equal to > 5 µM

----------
Molecular target: LYN B (Homo sapiens, UniProt P07948)
Sequence (P07948 1-491 isoform P07948-2): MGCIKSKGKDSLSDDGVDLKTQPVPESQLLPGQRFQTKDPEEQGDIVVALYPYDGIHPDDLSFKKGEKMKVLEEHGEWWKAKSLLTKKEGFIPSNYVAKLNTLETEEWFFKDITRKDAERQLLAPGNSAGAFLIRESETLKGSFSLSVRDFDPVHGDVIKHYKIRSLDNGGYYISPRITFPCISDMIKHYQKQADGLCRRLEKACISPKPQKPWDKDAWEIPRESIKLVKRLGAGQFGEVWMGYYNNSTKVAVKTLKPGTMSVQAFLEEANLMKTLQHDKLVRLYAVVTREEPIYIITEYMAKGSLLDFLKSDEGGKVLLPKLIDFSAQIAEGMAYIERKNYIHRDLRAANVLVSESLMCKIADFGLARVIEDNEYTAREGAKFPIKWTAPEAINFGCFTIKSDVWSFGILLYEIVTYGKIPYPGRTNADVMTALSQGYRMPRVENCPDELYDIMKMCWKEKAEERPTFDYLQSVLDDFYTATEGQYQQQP
Assay: SelectScreen kinase specificity survey
Conditions: estimated, abridged dose response curve, read-out: Kinase inhibitory activity EC50
ASSAY READOUT: EC50
Please give the number followed by its unit.

CCN(CC)CCNc1ccc2ncn3c4ccc(O)cc4c(=O)c1c23 [Symadex, reference compound]
812 nM

Okay, now this compound:
Record `CN(C)CCCNc1ccc2ncn3c4ccc5[nH]ncc5c4c(=O)c1c23` / LYN B (Homo sapiens, UniProt P07948), EC50 recorded as 426 nM

----------
Target: MAP4K2 (GCK) (Homo sapiens, UniProt Q12851)
Sequence (Q12851 whole entry): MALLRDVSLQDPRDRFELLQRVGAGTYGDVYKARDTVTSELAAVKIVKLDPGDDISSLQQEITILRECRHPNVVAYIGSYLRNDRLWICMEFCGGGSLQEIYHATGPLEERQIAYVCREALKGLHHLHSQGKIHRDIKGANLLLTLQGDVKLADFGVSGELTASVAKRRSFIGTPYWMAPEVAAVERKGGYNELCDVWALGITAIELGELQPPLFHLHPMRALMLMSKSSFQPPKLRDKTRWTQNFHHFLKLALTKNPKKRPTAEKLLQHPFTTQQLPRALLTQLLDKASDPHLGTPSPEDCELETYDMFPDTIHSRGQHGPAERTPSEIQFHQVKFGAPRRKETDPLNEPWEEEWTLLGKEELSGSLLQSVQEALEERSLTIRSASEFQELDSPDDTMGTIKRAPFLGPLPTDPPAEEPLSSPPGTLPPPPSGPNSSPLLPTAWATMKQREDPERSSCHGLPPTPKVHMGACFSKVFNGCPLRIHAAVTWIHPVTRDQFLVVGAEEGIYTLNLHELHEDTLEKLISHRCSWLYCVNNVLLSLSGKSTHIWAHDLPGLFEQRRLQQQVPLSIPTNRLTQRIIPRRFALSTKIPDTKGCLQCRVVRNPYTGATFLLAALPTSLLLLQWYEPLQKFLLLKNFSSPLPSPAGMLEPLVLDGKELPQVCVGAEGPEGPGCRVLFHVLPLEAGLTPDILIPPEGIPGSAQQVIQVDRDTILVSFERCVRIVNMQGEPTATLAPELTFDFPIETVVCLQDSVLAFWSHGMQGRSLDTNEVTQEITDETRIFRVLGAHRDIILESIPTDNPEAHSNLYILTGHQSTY
Assay: SelectScreen kinase specificity survey
Conditions: estimated, abridged dose response curve, read-out: Kinase inhibitory activity EC50
ASSAY READOUT: pEC50
As a rule, pEC50 stands for the negative log10 of the concentration, concentration in M.

Field pEC50 (entry CCN(CC)CCNc1ccc2ncn3c4ccc(O)cc4c(=O)c1c23 [Symadex, reference compound] ) reads 5.31

----------
Biological target: MUSK (Homo sapiens, UniProt O15146)
Experiment: SelectScreen kinase specificity survey
Details: estimated, abridged dose response curve, read-out: Kinase inhibitory activity EC50
ASSAY READOUT: pEC50
Keep it numeric: pEC50 is minus log10 of the concentration in mol/L.

Let me check: CCN(CC)CCNc1ccc2ncn3c4ccc(O)cc4c(=O)c1c23 [Symadex, reference compound] , system MUSK (Homo sapiens, UniProt O15146), measured pEC50 is 5.43

Assay MUSK (Homo sapiens, UniProt O15146), sample `CN(C)CCCNc1ccc2ncn3c4ccc5[nH]ncc5c4c(=O)c1c23` , pEC50 read: 5.84

----------
Target: ADRBK1 (BARK1, GRK2) (Homo sapiens)
Construct: purchased Invitrogen (SelectScreen platform)
Sequence (P25098 1-689): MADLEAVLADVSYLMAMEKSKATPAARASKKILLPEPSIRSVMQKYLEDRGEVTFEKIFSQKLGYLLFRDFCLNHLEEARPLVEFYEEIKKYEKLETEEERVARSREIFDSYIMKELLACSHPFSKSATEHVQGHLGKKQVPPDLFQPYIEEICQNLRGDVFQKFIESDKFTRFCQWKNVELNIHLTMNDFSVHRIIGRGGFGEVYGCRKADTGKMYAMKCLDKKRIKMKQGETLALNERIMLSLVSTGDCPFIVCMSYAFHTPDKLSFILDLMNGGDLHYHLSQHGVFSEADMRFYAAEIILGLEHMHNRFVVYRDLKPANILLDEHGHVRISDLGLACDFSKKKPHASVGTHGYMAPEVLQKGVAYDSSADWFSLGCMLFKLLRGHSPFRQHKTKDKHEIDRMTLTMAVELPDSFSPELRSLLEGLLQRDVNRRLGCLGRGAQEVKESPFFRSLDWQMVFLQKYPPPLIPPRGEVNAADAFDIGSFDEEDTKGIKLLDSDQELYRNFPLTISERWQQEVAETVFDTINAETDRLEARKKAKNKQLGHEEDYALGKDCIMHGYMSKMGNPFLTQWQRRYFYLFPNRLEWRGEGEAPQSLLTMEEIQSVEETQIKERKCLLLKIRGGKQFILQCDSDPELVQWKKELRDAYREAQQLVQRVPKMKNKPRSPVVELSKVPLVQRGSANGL
Experiment: SelectScreen kinase specificity survey
Assay type: biochemical
ASSAY READOUT: EC50

For reference, reported EC50 for CCN(CC)CCNc1ccc2ncn3c4ccc(O)cc4c(=O)c1c23 [Symadex, reference compound] stands at > 5 µM

----------
Target: PIM2 (Homo sapiens)
Sequence (Q9P1W9 whole entry): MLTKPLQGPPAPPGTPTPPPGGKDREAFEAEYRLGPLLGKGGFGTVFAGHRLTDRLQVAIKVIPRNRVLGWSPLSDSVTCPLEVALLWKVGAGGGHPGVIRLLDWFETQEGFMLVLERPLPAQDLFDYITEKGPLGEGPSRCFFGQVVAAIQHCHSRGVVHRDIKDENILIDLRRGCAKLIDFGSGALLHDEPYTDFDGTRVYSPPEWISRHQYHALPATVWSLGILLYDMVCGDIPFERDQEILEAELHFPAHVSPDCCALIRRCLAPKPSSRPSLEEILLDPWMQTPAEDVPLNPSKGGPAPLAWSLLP
Test: SelectScreen kinase specificity survey
Settings: estimated, abridged dose response curve, read-out: Kinase inhibitory activity EC50
Method: Testing of the compounds described in this invention was carried out using the SelectScreen™ platform from Invitrogen, Inc. (Carlsbad. Calif., USA) and the details of its performance are readily viewed via the web by linking to: http://www.invitrogen.com/downloads/SelectScrn_Brochure.pdf. Briefly, the approach is based on treating each specific kinase with a unique substrate and optical reporter system in the presence of ATP at 100 micromolar. […]
ASSAY READOUT: EC50

CCN(CC)CCNc1ccc2ncn3c4ccc(O)cc4c(=O)c1c23 [Symadex, reference compound]
> 5 µM

Continue with the compound presented below.
Noted EC50 for `CN(C)CCCNc1ccc2ncn3c4ccc5[nH]ncc5c4c(=O)c1c23` , tested on PIM2 (Homo sapiens): > 5 µM

----------
Molecular target: HCK (Homo sapiens, UniProt P08631)
Sequence (P08631 whole entry): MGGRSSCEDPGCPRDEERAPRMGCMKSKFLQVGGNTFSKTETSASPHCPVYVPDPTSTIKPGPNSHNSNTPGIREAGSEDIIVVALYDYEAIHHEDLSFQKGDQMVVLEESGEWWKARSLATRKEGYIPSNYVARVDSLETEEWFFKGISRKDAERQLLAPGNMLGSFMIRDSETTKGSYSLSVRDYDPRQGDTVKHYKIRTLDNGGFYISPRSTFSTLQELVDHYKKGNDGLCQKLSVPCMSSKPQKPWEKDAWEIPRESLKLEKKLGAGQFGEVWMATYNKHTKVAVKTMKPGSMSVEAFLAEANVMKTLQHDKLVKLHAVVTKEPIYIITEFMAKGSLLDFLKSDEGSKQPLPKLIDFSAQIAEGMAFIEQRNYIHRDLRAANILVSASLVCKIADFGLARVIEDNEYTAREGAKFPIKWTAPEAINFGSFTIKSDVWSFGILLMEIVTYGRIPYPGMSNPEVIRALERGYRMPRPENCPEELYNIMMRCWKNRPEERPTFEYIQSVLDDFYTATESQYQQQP
Test: SelectScreen kinase specificity survey
Settings: estimated, abridged dose response curve, read-out: Kinase inhibitory activity EC50
ASSAY READOUT: pEC50
Scale: negative log10 of molar concentration, which is what pEC50 denotes.

CN(C)CCCNc1ccc2ncn3c4ccc5[nH]ncc5c4c(=O)c1c23
5.64

Query compound follows.
Given item CCN(CC)CCNc1ccc2ncn3c4ccc(O)cc4c(=O)c1c23 [Symadex, reference compound] , the value recorded as its pEC50 is 5.40

----------
pEC50 reference
Molecular target: AURKC (Aurora C) (Homo sapiens, UniProt Q9UQB9)
Sequence (Q9UQB9 whole entry): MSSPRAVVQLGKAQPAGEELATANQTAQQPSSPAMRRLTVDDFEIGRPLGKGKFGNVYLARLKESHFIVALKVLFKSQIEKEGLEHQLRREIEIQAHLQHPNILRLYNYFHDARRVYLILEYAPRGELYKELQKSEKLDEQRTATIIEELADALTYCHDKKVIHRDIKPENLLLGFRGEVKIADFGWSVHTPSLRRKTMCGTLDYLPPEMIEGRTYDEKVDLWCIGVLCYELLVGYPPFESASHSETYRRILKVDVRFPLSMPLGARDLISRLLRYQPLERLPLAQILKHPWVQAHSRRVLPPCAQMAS
Assay: SelectScreen kinase specificity survey
Settings: estimated, abridged dose response curve, read-out: Kinase inhibitory activity EC50
pEC50: −log10 of the molar value.

CCN(CC)CCNc1ccc2ncn3c4ccc(O)cc4c(=O)c1c23 [Symadex, reference compound]
< 5.30

Okay, next one:
I looked up `CN(C)CCCNc1ccc2ncn3c4ccc5[nH]ncc5c4c(=O)c1c23` and its pEC50 for AURKC (Aurora C) (Homo sapiens, UniProt Q9UQB9) was < 5.30

----------
Biological target: SGKL (SGK3) (Homo sapiens, UniProt Q96BR1)
Sequence (Q96BR1 whole entry): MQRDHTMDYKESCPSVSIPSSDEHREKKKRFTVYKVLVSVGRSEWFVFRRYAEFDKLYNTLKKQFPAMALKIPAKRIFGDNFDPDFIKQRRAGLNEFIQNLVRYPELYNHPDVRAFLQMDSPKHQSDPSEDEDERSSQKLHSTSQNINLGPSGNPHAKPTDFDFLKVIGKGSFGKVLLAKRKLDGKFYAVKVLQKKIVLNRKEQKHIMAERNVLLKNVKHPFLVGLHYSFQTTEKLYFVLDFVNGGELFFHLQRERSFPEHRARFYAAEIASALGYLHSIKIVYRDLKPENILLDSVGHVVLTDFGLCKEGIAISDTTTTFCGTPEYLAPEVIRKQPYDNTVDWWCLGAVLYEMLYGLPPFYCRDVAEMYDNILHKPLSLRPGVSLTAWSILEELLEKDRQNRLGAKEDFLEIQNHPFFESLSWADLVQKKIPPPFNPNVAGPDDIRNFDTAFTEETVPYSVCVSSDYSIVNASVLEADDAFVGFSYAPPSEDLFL
Test: SelectScreen kinase specificity survey
Settings: estimated, abridged dose response curve, read-out: Kinase inhibitory activity EC50
pEC50: −log10 of the molar value.
In this section we review reported pEC50 values for a set of compounds.

CCN(CC)CCNc1ccc2ncn3c4ccc(O)cc4c(=O)c1c23 [Symadex, reference compound]
< 5.30

Then this compound:
# compound CN(C)CCCNc1ccc2ncn3c4ccc5[nH]ncc5c4c(=O)c1c23 [Compound (IV)] ; its pEC50 = < 5.30

----------
EC50 by entry:
Target: DYRK1A (Homo sapiens, UniProt Q13627)
Assay: SelectScreen kinase specificity survey
Conditions: estimated, abridged dose response curve, read-out: Kinase inhibitory activity EC50
Reply numerically in nM, unit not repeated.

CN(C)CCCNc1ccc2ncn3c4ccc5[nH]ncc5c4c(=O)c1c23
468

Recorded result, CCN(CC)CCNc1ccc2ncn3c4ccc(O)cc4c(=O)c1c23 [Symadex, reference compound] , EC50: 708

----------
Collected pEC50 values appear next to each entry.
Biological target: UniProtKB O96017
Experiment: SelectScreen kinase specificity survey
Settings: estimated, abridged dose response curve, read-out: Kinase inhibitory activity EC50
pEC50: −log10 of the molar value.

CCN(CC)CCNc1ccc2ncn3c4ccc(O)cc4c(=O)c1c23 [Symadex, reference compound]
< 5.30

Here is another molecule to look at.
Tested on UniProtKB O96017, the item `CN(C)CCCNc1ccc2ncn3c4ccc5[nH]ncc5c4c(=O)c1c23` showed pEC50 equal to < 5.30

----------
Target: RPS6KA6 (RSK4) (Homo sapiens, UniProt Q9UK32)
Sequence (Q9UK32 whole entry): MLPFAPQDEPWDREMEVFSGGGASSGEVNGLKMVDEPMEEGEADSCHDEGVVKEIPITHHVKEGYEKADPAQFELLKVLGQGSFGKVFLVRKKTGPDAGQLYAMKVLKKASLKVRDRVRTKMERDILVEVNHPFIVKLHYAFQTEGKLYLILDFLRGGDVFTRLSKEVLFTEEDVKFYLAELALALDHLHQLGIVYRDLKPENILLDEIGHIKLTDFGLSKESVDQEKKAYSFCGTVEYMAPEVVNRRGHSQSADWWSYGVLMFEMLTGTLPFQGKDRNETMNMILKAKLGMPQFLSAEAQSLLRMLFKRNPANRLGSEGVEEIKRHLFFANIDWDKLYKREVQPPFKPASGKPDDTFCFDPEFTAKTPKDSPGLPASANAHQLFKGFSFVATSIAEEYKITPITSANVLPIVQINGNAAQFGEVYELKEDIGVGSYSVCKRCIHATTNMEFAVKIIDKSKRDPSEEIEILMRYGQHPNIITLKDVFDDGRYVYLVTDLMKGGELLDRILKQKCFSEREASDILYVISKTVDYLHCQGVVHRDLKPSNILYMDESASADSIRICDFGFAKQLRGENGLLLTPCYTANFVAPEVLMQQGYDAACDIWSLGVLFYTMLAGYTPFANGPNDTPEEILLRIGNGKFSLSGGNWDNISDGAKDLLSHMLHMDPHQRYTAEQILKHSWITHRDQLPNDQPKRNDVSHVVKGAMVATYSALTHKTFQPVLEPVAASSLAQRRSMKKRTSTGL
Assay: SelectScreen kinase specificity survey
Details: estimated, abridged dose response curve, read-out: Kinase inhibitory activity EC50
ASSAY READOUT: pEC50
pEC50 is defined as minus the log10 of a concentration measured in mol/L.

CCN(CC)CCNc1ccc2ncn3c4ccc(O)cc4c(=O)c1c23 [Symadex, reference compound]
6.74

Proceed to the following item.
Given the molecule CN(C)CCCNc1ccc2ncn3c4ccc5[nH]ncc5c4c(=O)c1c23 [Compound (IV)] and test system RPS6KA6 (RSK4) (Homo sapiens, UniProt Q9UK32), the measured pEC50 is 6.18

----------
Target: FGFR2 (Homo sapiens, UniProt P21802)
Sequence (P21802 22-821): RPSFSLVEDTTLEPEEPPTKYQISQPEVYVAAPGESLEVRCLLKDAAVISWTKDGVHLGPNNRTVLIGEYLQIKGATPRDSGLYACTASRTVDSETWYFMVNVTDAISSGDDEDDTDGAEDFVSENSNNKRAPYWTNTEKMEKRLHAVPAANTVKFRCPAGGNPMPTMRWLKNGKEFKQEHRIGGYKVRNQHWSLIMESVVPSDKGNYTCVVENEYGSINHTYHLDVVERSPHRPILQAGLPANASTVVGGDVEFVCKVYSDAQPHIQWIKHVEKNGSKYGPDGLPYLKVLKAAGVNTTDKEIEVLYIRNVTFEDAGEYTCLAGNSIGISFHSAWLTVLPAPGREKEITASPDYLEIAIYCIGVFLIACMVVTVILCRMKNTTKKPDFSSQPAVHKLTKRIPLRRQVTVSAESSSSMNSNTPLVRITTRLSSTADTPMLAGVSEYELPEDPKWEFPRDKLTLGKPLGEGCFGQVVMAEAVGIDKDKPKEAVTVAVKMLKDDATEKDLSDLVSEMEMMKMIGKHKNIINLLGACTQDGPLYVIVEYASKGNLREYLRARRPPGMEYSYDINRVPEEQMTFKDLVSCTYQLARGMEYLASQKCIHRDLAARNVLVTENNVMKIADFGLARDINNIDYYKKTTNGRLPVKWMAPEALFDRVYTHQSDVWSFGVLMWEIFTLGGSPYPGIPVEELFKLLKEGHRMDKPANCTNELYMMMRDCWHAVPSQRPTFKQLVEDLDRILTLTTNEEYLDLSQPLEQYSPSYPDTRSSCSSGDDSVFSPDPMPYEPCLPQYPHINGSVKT
Assay: SelectScreen kinase specificity survey
Conditions: estimated, abridged dose response curve, read-out: Kinase inhibitory activity EC50
ASSAY READOUT: pEC50
In simple prose, pEC50 is minus the logarithm base ten of a concentration in moles per litre.

CCN(CC)CCNc1ccc2ncn3c4ccc(O)cc4c(=O)c1c23 [Symadex, reference compound]
5.35

Now look at this one.
The compound `CN(C)CCCNc1ccc2ncn3c4ccc5[nH]ncc5c4c(=O)c1c23` , tested on FGFR2 (Homo sapiens, UniProt P21802), showed pEC50 of 5.54

----------
Target: FES (FPS) (Homo sapiens, UniProt P07332)
Assay: SelectScreen kinase specificity survey
Conditions: estimated, abridged dose response curve, read-out: Kinase inhibitory activity EC50
// reported pEC50 for each item listed
# log scale: pEC50 equals minus log10 of the concentration in mol/L

CCN(CC)CCNc1ccc2ncn3c4ccc(O)cc4c(=O)c1c23 [Symadex, reference compound]
5.98

The record that follows has no pEC50 shown yet.
// returns pEC50 for `CN(C)CCCNc1ccc2ncn3c4ccc5[nH]ncc5c4c(=O)c1c23` with FES (FPS) (Homo sapiens, UniProt P07332); value = 5.65
